targetSystem: Pyruvate carboxylase (Staphylococcus aureus (strain Mu50 / ATCC 700699))
Sequence (A0A0H3JRU9 whole entry): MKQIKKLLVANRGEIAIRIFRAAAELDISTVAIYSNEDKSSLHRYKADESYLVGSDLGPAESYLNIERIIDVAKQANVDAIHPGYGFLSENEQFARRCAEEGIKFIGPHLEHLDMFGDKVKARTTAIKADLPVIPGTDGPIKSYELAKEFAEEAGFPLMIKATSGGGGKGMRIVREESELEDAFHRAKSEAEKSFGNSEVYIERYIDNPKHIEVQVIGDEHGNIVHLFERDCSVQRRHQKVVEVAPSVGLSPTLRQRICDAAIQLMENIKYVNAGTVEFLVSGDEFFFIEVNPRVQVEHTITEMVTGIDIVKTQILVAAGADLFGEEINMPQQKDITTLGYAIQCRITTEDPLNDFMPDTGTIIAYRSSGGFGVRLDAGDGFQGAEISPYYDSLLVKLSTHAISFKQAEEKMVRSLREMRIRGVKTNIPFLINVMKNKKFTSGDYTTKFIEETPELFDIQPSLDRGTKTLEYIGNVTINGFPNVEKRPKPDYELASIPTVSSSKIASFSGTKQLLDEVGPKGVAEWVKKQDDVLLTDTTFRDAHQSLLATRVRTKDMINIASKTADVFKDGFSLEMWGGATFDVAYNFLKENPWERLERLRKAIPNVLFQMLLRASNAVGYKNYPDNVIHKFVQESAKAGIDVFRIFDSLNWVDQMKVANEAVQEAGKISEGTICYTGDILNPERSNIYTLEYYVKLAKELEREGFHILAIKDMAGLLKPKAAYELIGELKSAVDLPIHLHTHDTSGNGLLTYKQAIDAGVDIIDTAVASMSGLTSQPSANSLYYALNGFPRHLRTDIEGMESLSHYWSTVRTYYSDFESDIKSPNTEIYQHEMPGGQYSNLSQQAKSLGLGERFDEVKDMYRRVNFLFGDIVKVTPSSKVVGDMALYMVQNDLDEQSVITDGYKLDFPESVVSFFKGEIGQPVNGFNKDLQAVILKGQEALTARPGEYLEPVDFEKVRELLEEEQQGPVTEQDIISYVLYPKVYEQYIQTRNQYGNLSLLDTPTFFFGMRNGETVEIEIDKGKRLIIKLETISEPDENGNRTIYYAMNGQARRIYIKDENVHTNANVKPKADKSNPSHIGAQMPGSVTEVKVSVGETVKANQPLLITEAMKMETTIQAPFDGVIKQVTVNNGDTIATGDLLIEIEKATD
methodDescription: Inhibition of Staphylococcus aureus Pyruvate carboxylase using pyruvate, HCO3-, ATP and NADH as substrate assessed as oxaloacetate formation by measuring NADH oxidation by spectrophotometry based malate dehydrogenase coupled enzyme assay
observedProperty: pIC50
FYI, pIC50 means -log10 of a concentration in mol per litre.

Worked examples, 5 molecules total:
> print(dat)
                                   molecule  observedproperty  observedmeasurement
1     O=C1C(=O)N(c2ccccc2)C(=O)N1CCc1ccccc1             pIC50                 3.43
2      CCOC(=O)CN1C(=O)C(=O)N(c2ccccc2)C1=O             pIC50                 5.29
3    CCOC(=O)CN1C(=O)C(=O)N(CCc2ccccc2)C1=O             pIC50                 5.03
4  CC(c1ccccc1)N1C(=O)C(=O)N(c2ccccc2)C1=O (stereo unspecified)             pIC50                 4.46
5         CN1C(=O)C(=O)N(CC(=O)c2cccs2)C1=O             pIC50                 4.35

Turning now to a further record.
Query :: For the molecule CCCOC(=O)CN1C(=O)C(=O)N(c2ccccc2)C1=O , give its reported pIC50.
Result :: 5.30

Data provenance is ChEMBL document CHEMBL5584270.
